# credit: patent US7531545B2

- target.desc: UniProt:P56817
- Sequence (P56817 46-501): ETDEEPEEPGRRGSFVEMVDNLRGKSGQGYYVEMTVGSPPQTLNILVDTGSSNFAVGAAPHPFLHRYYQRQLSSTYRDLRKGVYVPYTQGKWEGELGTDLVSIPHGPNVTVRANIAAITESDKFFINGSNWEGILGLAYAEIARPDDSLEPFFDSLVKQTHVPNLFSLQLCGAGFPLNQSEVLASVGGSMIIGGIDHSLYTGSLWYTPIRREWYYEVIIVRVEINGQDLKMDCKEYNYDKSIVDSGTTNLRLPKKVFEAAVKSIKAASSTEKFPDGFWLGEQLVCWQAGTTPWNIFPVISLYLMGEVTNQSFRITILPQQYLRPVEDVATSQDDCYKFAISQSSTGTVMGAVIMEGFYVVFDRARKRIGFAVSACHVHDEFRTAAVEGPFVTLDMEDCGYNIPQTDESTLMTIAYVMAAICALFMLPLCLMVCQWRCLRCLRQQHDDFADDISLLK
- assay.text: CEREP BACE Inhibition Assay
- Type: biochemical
- experimental.context: recombinant enzyme; read-out: IC50
pIC50: −log10 of the molar value.

{"molecule": "Cn1c(CN(CCC(C)(C)C)C(=O)CC[C@@H](C2CCCCC2)N2Cc3cc(Oc4ccccc4)ncc3N=C2N)nc(Cl)c1Cl [Compound 172]", "pIC50": 6.77}
{"molecule": "COC(=O)[C@H](COCc1ccccc1)N(C)C(=O)CC[C@@H](C1CCOCC1)N1Cc2cc(Oc3ccccc3)ncc2N=C1N [Compound 56]", "pIC50": 7.12}
{"molecule": "CC(C)(CO)CNC(=O)CC[C@@H](C1CCCCC1)N1Cc2cc(Oc3ccccc3)ncc2N=C1N [Compound 179]", "pIC50": 7.09}
{"molecule": "C[C@H](CO)N(C)CCC[C@@H](C1CCCCC1)N1Cc2cc(Oc3ccccc3)ncc2N=C1N [Compound 184]", "pIC50": 5.64}
{"molecule": "COC(=O)[C@H](COC(C)(C)C)NC(=O)CC[C@@H](C1CCCCC1)N1Cc2cc(Oc3ccccc3)ncc2N=C1N [Compound 61]", "pIC50": 6.62}
{"molecule": "CC(C)(C)c1cn(C[C@@H](C2CCCCC2)N2Cc3cc(Oc4ccccc4)ncc3N=C2N)nn1 [Compound 152]", "pIC50": 7.06}
{"molecule": "CC(C)(C)CNC(=O)CC[C@@H](C1CCCCC1)N1Cc2cc(Oc3ccccc3)ncc2N=C1N [Compound 204]", "pIC50": 7.11}
